The reported measurements were obtained from ChEMBL document CHEMBL1201862.

tested on: SNB-75; assay: NCI tumour cell line growth inhibition, 48 h
Active and inactive are the calls of the source. Rule as the data show it: active = GI50 up to about 1.1 µM and inactive = higher.
attribute_measured: GI50

>>> df
                                   compound  experimental_system            data_value
0       O=C(C[N+]1(c2ccccc2)CCOCC1)c1ccccc1               SNB-75   > 100 µM (inactive)
1  CCOC(=O)CCc1c(C)c2c(OC(C)=O)cc(OC(C)=O)cc2oc1=O               SNB-75    21.7 µM (inactive)
2  CCCCCCCCCCCC[C@@H](O)[C@H]1CCC([C@H](O)CCCCC(=O)CCCCCCCC2=C[C@H](C)OC2=O)O1 (stereo not given in full)               SNB-75  > 37.9 µM (inactive)
3  COc1ccc(C2C3COc4ccccc4C3=NN2c2ccccc2)cc1 (stereo not given)               SNB-75   > 100 µM (inactive)
4  O=C(/C=C/c1cccc([N+](=O)[O-])c1)c1ccc([N+](=O)[O-])cc1               SNB-75   > 100 µM (inactive)
5  CC1Oc2c(c(=O)oc3ccccc23)[C@@]1(C)CC1C[C@H](C)C(=O)O1 (stereo not given in full)               SNB-75    24.7 µM (inactive)
6  O=C1CC(n2cccc2)c2cc(Br)sc21 (stereo not given)               SNB-75    7.93 µM (inactive)
7  Cc1cccc(O)c1-c1nnc(CCCCCCCCc2nnc(-c3c(C)cccc3O)n2N)n1N               SNB-75      25 µM (inactive)
8  COc1ccc2cc(CNCCCCCCCCNCc3ccc4cc(OC)ccc4c3)ccc2c1               SNB-75    3.41 µM (inactive)
9       C[N+]1=c2c3cccc4cccc(c(=O)n2CC1)c43               SNB-75    21.8 µM (inactive)

* * *

test system: OVCAR-8; assay: NCI tumour cell line growth inhibition, 48 h
Activity calls are given as the source filed them. Cut-off read from the data, not from the text of the source: active = GI50 up to about 1.1 µM and inactive = higher.
Overview of reported GI50 across a group of compounds:
attribute_measured: GI50

In [3]: df
Out[3]:
                                   compound           data_value
0  COc1cccc(N2C(=O)C3c4[nH]c5ccc(C)cc5c4C4CCC(C(C)(C)C)CC4C3C2=O)c1 (stereo not drawn)   2.58 µM (inactive)
1  O=P(O)(CN1CCN(CP(=O)(O)c2ccccc2)CCN(CP(=O)(O)c2ccccc2)CC1)c1ccccc1  > 100 µM (inactive)
2            N#C/C(C(=O)CCl)=C1\Nc2ccccc2O1   2.89 µM (inactive)
3  C/C(CC(O)(C(F)(F)Cl)C(F)(F)Cl)=N\Nc1ccccc1   36.7 µM (inactive)
4        [O-][N+](CCO)(CCO)c1ncnc2[nH]cnc12  > 100 µM (inactive)
5  CC(C)(C)OC(=O)C1CCC/C1=N/Nc1ccc([N+](=O)[O-])cc1[N+](=O)[O-] (stereo not drawn)   27.5 µM (inactive)
6                     CCSCCCN(CCCSCC)CCCSCC  > 100 µM (inactive)
7  [N-]=[N+]=CC(=O)OCC1NC(=O)C(COC(=O)C=[N+]=[N-])NC1=O (stereo not drawn)  > 100 µM (inactive)
